tested on: Cryptococcus neoformans; settings: Concentration 32 ug.mL-1; ASSAY_TEST Inhibition of Fungal Growth; detection method Resazurin; Absorption (OD600-OD570); plate type 384well; NBS; CORNING #3640
Description: Antifungal activity against Cryptococcus neoformans H99 ATCC 208821 (CO-ADD:FG_002); MIC in YNB media using NBS plates, by Resazurin OD(600-570)
Entries with a potency or affinity are not part of this list.
Give 1 when the value for Inhibition is at least -10%. Give -1 when it is less.

Some solved cases for reference:
## Input Hi team, for CCC(C)NC(=O)CCn1c(=O)c2ccccc2n2c(=O)n(CC(=O)NCc3cccs3)nc12 (stereo unspecified) , is the recorded Inhibition at or above -10%?
## Output -1

## Input Hi team, for "Cc1cccc(N(Cc2ccccc2F)S(=O)(=O)c2ccc3nncn3c2)c1" , is the recorded Inhibition at or above -10%?
## Output 1

## Input Hi team, for "Cc1ccc(Sc2nccn3c(=O)n(CC(=O)Nc4ccc(Br)cc4C)nc23)c(C)c1" , is the recorded Inhibition at or above -10%?
## Output -1

## Input Hi team, for "COc1ccccc1NC(=O)Cn1nc2c(SCc3ccccc3)nccn2c1=O" , is the recorded Inhibition at or above -10%?
## Output -1

## Input Hi team, for "O=C(Cn1nc2ccc(Sc3cccc(F)c3)nn2c1=O)Nc1cccc(Cl)c1" , is the recorded Inhibition at or above -10%?
## Output 1

More entries:
## Input Hi team, for "Cc1ccc(NC(=O)c2ccc3nnc(SCC(=O)Nc4ccc(F)cc4)n3c2)cc1" , is the recorded Inhibition at or above -10%?
## Output 1

## Input Hi team, for "COc1cc(NC(=O)CSc2nnc3c(=O)n(-c4ccccc4)ccn23)cc(OC)c1" , is the recorded Inhibition at or above -10%?
## Output -1

## Input Hi team, for "Cc1ccc(NC(=O)Cn2nc3c(SC4CCCCC4)nccn3c2=O)cc1" , is the recorded Inhibition at or above -10%?
## Output -1

## Input Hi team, for "COc1ccc(NC(=O)Cn2nc3c(Oc4ccccc4)nccn3c2=O)cc1OC" , is the recorded Inhibition at or above -10%?
## Output 1

## Input Hi team, for "CCOc1ccccc1NC(=O)Cn1c(=O)c2nnc(C(C)C)n2c2ccccc21" , is the recorded Inhibition at or above -10%?
## Output 1

## Input Hi team, for "COc1cccc(CNC(=O)CSc2nnc3c(=O)n(-c4ccc(F)cc4)ccn23)c1OC" , is the recorded Inhibition at or above -10%?
## Output 1

## Input Hi team, for "CCCc1ccc(S(=O)(=O)Nc2ccc3nncn3n2)cc1" , is the recorded Inhibition at or above -10%?
## Output 1

## Input Hi team, for "O=c1c2sccc2n2c(SCc3cccc(C(F)(F)F)c3)nnc2n1Cc1cccs1" , is the recorded Inhibition at or above -10%?
## Output -1

## Input Hi team, for "Cc1cc2nn(CC(=O)N3CCCC3)c(=O)n2c(Nc2ccc(C)c(F)c2)n1" , is the recorded Inhibition at or above -10%?
## Output 1

## Input Hi team, for "O=S(=O)(c1ccc2nncn2c1)N(Cc1ccc(Cl)cc1)c1ccc2c(c1)OCO2" , is the recorded Inhibition at or above -10%?
## Output -1

## Input Hi team, for "O=C(Cn1nc2ccc(C(=O)NCc3ccccc3)cn2c1=O)Nc1ccc(Br)cc1" , is the recorded Inhibition at or above -10%?
## Output -1

###

test system: Cryptococcus neoformans; conditions: Concentration 32 ug.mL-1; ASSAY_TEST Inhibition of Fungal Growth; detection method Resazurin; Absorption (OD600-OD570); plate type 384well; NBS; CORNING #3640
Results with a measured potency or affinity are listed apart.
Measured Inhibition, listed per entry.
Lab book: enter the figure in %, no units written.

Consider the following illustrative entries.
## Input Please look at this molecule and report its Inhibition: "CCCN(C)c1nccn2c(=O)n(CC(=O)Nc3cccc(SC)c3)nc12"
## Output -6.21

## Input Please look at this molecule and report its Inhibition: "CCc1nnc2c(=O)n(CC(=O)Nc3ccc(Br)cc3F)c3ccccc3n12"
## Output -13.86

## Input Please look at this molecule and report its Inhibition: "CCc1ccccc1NC(=O)Cn1nc2c(SCc3ccc(Cl)cc3)nccn2c1=O"
## Output -20.04

More entries:
## Input Please look at this molecule and report its Inhibition: "CCc1nnc2c(S(=O)(=O)N(Cc3cc(F)cc(F)c3)c3ccc(F)cc3)cccn12"
## Output -8.28

## Input Please look at this molecule and report its Inhibition: "COc1ccc(NC(=O)Cn2nc3c4c5c(sc4ncn3c2=O)CCCC5)cc1"
## Output -17.73

## Input Please look at this molecule and report its Inhibition: "O=C(Cn1nc2c(N3CCOCC3)nccn2c1=O)Nc1cccc(C(F)(F)F)c1"
## Output -4.42

###

Measured Inhibition, listed per entry.
test system: Cryptococcus neoformans; conditions: Concentration 32 ug.mL-1; ASSAY_TEST Inhibition of Fungal Growth; detection method Resazurin; Absorption (OD600-OD570); plate type 384well; NBS; CORNING #3640
Results with a measured potency or affinity are listed apart.
Lab book: enter the figure in %, no units written.

## Input Please look at this compound and report its Inhibition: "Cc1cc(C)c(NC(=O)Cn2nc3c4cc(-c5ccc(F)cc5)nn4ccn3c2=O)c(C)c1"
## Output -19.36

## Input Please look at this compound and report its Inhibition: "CCOC(=O)c1ccc(NC(=O)Cn2nc3c(SC4CCCCC4)nccn3c2=O)cc1"
## Output -30.92

## Input Please look at this compound and report its Inhibition: "Cc1ccc(NC(=O)CSc2nc3ccccc3n3cnnc23)c(Br)c1"
## Output -26.85

## Input Please look at this compound and report its Inhibition: "Cc1cc2nn(CC(=O)Nc3ccc(F)cc3)c(=O)n2c(Nc2ccccc2C)n1"
## Output -11.54

More entries:
## Input Please look at this compound and report its Inhibition: "COc1cccc(CNC(=O)CSc2nnc3c(=O)n(-c4cccc(OC)c4)ccn23)c1"
## Output -6.98

###

system: Klebsiella pneumoniae; details: Concentration 32 ug.mL-1;; ASSAY_TEST Inhibition of Bacterial Growth; detection method Absorption (OD600); MEDIA CAMHB; plate type 384well; NBS; CORNING #3640; time 18 hr
Description: Antibacterial activity against Klebsiella pneumoniae MDR ATCC 70063 (CO-ADD:GN_003); MIC in CAMBH media using NBS plates, by OD(600)
Results with a measured potency or affinity are listed apart.
measure: Inhibition (%)
Lab book: enter the figure in %, no units written.

Consider the following illustrative entries.
## Input Please look at this compound and report its Inhibition: "CCCCOc1ccc(-c2cc3c4nnc(SCC(=O)Nc5cccc(C(C)=O)c5)n4ccn3n2)cc1"
## Output 9.96

## Input Please look at this compound and report its Inhibition: "O=C(CSc1nnc2c3cc(-c4ccc(F)cc4)nn3ccn12)Nc1ccccc1C(F)(F)F"
## Output -6.96

More entries:
## Input Please look at this compound and report its Inhibition: "Cc1ccc(C(=O)CSc2nnc3c(=O)n(-c4ccc(F)cc4)ccn23)c(C)c1"
## Output 5.21

## Input Please look at this compound and report its Inhibition: "COc1ccc(CN(c2cc(C)cc(C)c2)S(=O)(=O)c2cccn3cnnc23)cc1F"
## Output -0.72

## Input Please look at this compound and report its Inhibition: "CCc1nnc2c(SCC(=O)Nc3ccc(Br)cc3)nc3ccccc3n12"
## Output -1.42

###

system: Cryptococcus neoformans; details: Concentration 32 ug.mL-1; ASSAY_TEST Inhibition of Fungal Growth; detection method Resazurin; Absorption (OD600-OD570); plate type 384well; NBS; CORNING #3640
Results with a measured potency or affinity are listed apart.
measure: Inhibition (%)
Lab book: enter the figure in %, no units written.

Consider the following illustrative entries.
## Input Please look at this compound and report its Inhibition: "O=C(CCc1nnc2c3cc(-c4ccccc4)nn3ccn12)N1CCN(C(=O)c2ccco2)CC1"
## Output -4.62

## Input Please look at this compound and report its Inhibition: "Cc1ccc(Oc2nccn3c(=O)n(CC(=O)NCc4cccs4)nc23)cc1"
## Output -8.11

## Input Please look at this compound and report its Inhibition: "O=c1c2nnc(SCc3ccccc3Cl)n2ccn1-c1ccc(F)cc1"
## Output -9

## Input Please look at this compound and report its Inhibition: "O=C(CCc1nnc2c(N3CCCCC3)nc3ccccc3n12)NCc1ccc(Br)cc1"
## Output -23.12

More entries:
## Input Please look at this compound and report its Inhibition: "CC(C)c1ccc(NC(=O)Cn2nc3c(N4CCCCC4)nccn3c2=O)cc1"
## Output -12.25

###

test system: Cryptococcus neoformans; settings: Concentration 32 ug.mL-1; ASSAY_TEST Inhibition of Fungal Growth; detection method Resazurin; Absorption (OD600-OD570); plate type 384well; NBS; CORNING #3640
Measured potencies and affinities stand elsewhere.
The label Fulfilled is reserved for Inhibition strictly under -20%; Not fulfilled covers values equal to or above it.

Some solved cases for reference:
## Input Is Inhibition strictly under -20% for the entry "CCc1nnc2c(S(=O)(=O)N(Cc3cccc(C)c3)c3cccc(Cl)c3)cccn12" ?
## Output Not fulfilled

## Input Is Inhibition strictly under -20% for the entry "CCc1nnc2c(S(=O)(=O)N(Cc3ccccc3C)c3ccc(Cl)cc3)cccn12" ?
## Output Not fulfilled

## Input Is Inhibition strictly under -20% for the entry "CCOC(=O)c1ccccc1NC(=O)Cn1nc2c3cc(-c4ccc(Cl)cc4)nn3ccn2c1=O" ?
## Output Fulfilled

## Input Is Inhibition strictly under -20% for the entry "O=c1c2sccc2n2c(SCc3cccc(C(F)(F)F)c3)nnc2n1Cc1ccc(F)cc1" ?
## Output Fulfilled

Would you kindly look at the next entry?
## Input Is Inhibition strictly under -20% for the entry "CCc1ccc(N(Cc2ccccc2F)S(=O)(=O)c2cccn3c(CC)nnc23)cc1" ?
## Output Not fulfilled

Origin of values: ChEMBL document CHEMBL4513146
